system: SF-295 CNS; assay: NCI-60 one-dose screen, 48 h (100 = growth as untreated, 0 = no growth, -100 = all killed); conditions: 10 µM unless noted
Compounds without any hit were thinned out: in the full panel of roughly 83,000, 20% have a hit.
In this section we review reported growth values for a set of molecules.
value.type: growth (%)

molecule | value.type | reported.result
COc1cc(-c2ccc3ncnc(N4CCc5ccc(Cl)cc54)c3c2)cnc1Cl | growth | 35
O=C(NN1C(=O)/C(=C/C=C/c2ccc([N+](=O)[O-])o2)SC1=S)c1ccncc1 | growth | -82.8
CCOc1ccccc1[C@H]1C(C(=O)c2ccc(Cl)cc2)C2(N[C@@H]1c1ccccc1)C(=O)Nc1ccccc12 (stereo partly specified) | growth | 9.84
COc1ccc(C2=NN(C(=O)[C@H]3[C@@H](c4ccco4)c4sc(=O)[nH]c4S[C@@H]3C)C(c3ccc4ccccc4c3)C2)cc1 (stereo partly specified) | growth | 38.6
CCN(C(=O)CN1C(=O)/C(=C/c2ccco2)SC1=S)C1CCS(=O)(=O)C1 (stereo unspecified) | growth | 105
O=C(Cn1c(-c2ccccc2)nc2ccccc21)N=Nc1c(O)[nH]c2ccc(Br)cc12 | growth | -80.4
Clc1ccc(-c2nc3ccc(-c4nnc(SCc5ccccc5)o4)cc3[nH]2)cc1 | growth | -73.4
COc1ccc(NC(=O)Nc2nc3ccc([N+](=O)[O-])cc3s2)cc1 | growth | 35.6
CN1C(=O)C(O)(CC(=O)c2cc3ccccc3oc2=O)c2ccccc21 (stereo unspecified) | growth | 96.3
NS(=O)(=O)c1ccc(N2N=C(c3ccc(NC(=O)Nc4ccccc4)cc3)CC2c2ccc(Br)cc2)cc1 (stereo unspecified) | growth | -64.9
COc1ccc(S(=O)(=O)Nc2ccc(-c3ccc4c(c3)NC(=O)/C4=C\c3ccc[nH]3)cc2)cc1OC | growth | 56.1
COc1cc(CNC(=O)C[C@H](C)CCC=C(C)C)ccc1OCc1cn(-c2cccc(C(F)(F)F)c2)nn1 | growth | 72.9
Cc1cc(C(NC(=O)C2CC3(CC(Nc4cccc5c4C(=O)N(C4CCC(=O)NC4=O)C5=O)C3)C2)c2ccc3c(c2)OC(F)(F)O3)c(O)c2ncccc12 (stereo unspecified) | growth | 8.11
C[C@H]1[C@@H](CC(=O)N[C@@H](Cc2coc3ccccc23)B(O)O)O[C@@H]2OC3(C)CC[C@H]4[C@H](C)CC[C@@H]1[C@@]24O3 | growth | -65.7
CN(C)CCCNC(=S)Nc1ccc(/C=C/c2ccc(Cl)cc2)cc1 | growth | -51.7
CCCCN1C(=O)/C(=C\C(=O)c2cc3ccccc3oc2=O)c2ccccc21 | growth | 101
COc1ccc(N=Nc2c(N)nn3c(-c4cc5ccccc5oc4=O)ccnc23)cc1 | growth | 34.5
Nc1nnc(CS(=O)(=O)c2ccccc2)s1 | growth | 99.2
CCCSc1nnc(-c2sc3nc4ccccc4n3c2C)o1 | growth | 105
Nc1nc2cc(-c3ccc4ncnc(NCc5ccccc5)c4c3)ccc2o1 | growth | -42.3
CN(CCSSCCN1CCOCC1)C(=O)Oc1cc2c(c3ccccc13)[C@H](CCl)CN2C(=O)c1cc2cc(OCCCN3CCC3)ccc2[nH]1 | growth | 1.02

###

system: UO-31 renal; experiment: NCI-60 one-dose screen, 48 h (100 = growth as untreated, 0 = no growth, -100 = all killed); conditions: 10 µM unless noted
The panel holds about 83,000 compounds, 20% with a hit somewhere; the sample as a whole holds those more often.

molecular.string | scale.unit | growth
O=C(CSc1nc2sc3c(c2c(=O)n1-c1ccc(Cl)cc1)CCCC3)NNC(=O)c1ccc(Br)cc1 | % | 62.3
Nc1nnc(CS(=O)(=O)c2ccccc2)s1 | % | 77.1
C/C(=N/O)c1ccc(NC(=O)CSc2nnc(-c3ccc(-c4nc5ccc(Cl)cc5[nH]4)cc3)o2)cc1 | % | 104
Cc1ccc(-c2cc(-c3ccccc3)[nH]c(=O)c2C#N)cc1 | % | 73.2
